- Test system: MS2 coat protein
- TEST DETAILS: apparent Kd, MS2 coat protein; higher = weaker binding; RNA-MaP array; FMN 200 µM where present
- TEST CONDITIONS: designed as: OFF switch for flavin mononucleotide; no ligand
Listing of entries alongside the reported apparent Kd.

Guide cases for apparent Kd, answers given:
CCGUUACAUGAGGAUCACCCAUGUGAGGAUAUCGAUGUAACUAGCAGCGUGCGGGACUCGAGAAGGCACUUGGC    0.104 µM
CGUUUGGGAGGAUAUCCAAUAUAUGACAUGAGGAUCACCCAUGUUUCCACUCGUACCUCCGGAGAAGGCCCUGCGU    0.0229 µM
GGUCGAAAGUAAGGAUAUGCCUAGGAAACCUAGGCAGAAGGUACAUGAGGAUCACCCAUGUUAACGCAAAGCGAAUAAACGACC    0.0186 µM
AUAAACAUGAGGAUCACCCAUGUGAGAAGGCGCAUUACUAUAUUUAUACACUUUAAUACUAACAGCGAGGAUAUCACCUCAUAA    0.0158 µM
GUUUACCGAGGAUAUACAUGAGGAUCACCCAUGUUCCUAAUAAACAUCGGUUCAGCGUGUAGAAGGCGGACCUA    0.0225 µM

get_value(item= "UAGAAAGAUUAAUAUGAUUACAUGAGGAUCACCCAUGUAUAUAAGGAUAUCGACGUCAAUGACGUCGAGAAGGUAUAUACAUAA" , readout=apparent Kd) returns 0.0663 µM
